- target.or.test.system: Trypsin (Bos taurus, UniProt P00760)
- Construct: Bovine trypsin is purchased; purchased Worthington Biochemicals, Freehold, N.J
- Sequence (P00760 24-246): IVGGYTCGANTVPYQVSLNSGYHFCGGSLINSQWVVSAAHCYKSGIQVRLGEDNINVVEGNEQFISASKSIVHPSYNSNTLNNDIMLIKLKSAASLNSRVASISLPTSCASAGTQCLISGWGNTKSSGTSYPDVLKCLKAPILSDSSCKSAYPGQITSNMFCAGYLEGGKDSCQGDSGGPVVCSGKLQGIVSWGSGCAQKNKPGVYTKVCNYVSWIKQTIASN
- assay.comment: Serine protease selectivity, chromogenic substrate (Kass), trypsin
- Format: biochemical, bovine
- settings: substrate N-Benzoyl-Phe-Val-Arg-p-nitroanilide
Binary call on Enzyme Kass, Trypsin: true (1) from 200 L/mol × 10^6 upward, false (0) beneath that.

molecule	group
Cl.Cl.N=C(N)NCCC[C@@H](C=O)NC(=O)[C@@H]1CC2CCCCC2N1C(=O)[C@H]1CCCCN1 (relative stereo) [Example 7]	false (0)
CC(C)CC[C@H]1C[C@@H](C(=O)N[C@H](C=O)CCCNC(=N)N)N(C(=O)[C@H]2CCCCN2)C1.Cl.Cl (relative stereo) [Example 4]	false (0)
CCS(=O)(=O)N[C@@H](C(=O)N1[C@H](C(=O)N[C@H](C=O)CCCNC(=N)N)C[C@@H]2CCCC[C@@H]21)c1ccccc1.Cl (relative stereo) [Example 22, EtSO2 -D-Phg-cis-Ohi-ArgH.HCl]	true (1)
CC[C@H]1C[C@@H](C(=O)N[C@H](C=O)CCCNC(=N)N)N(C(=O)[C@H]2CCCCN2)C1.Cl.Cl (relative stereo) [Example 2]	true (1)
CCS(=O)(=O)N[C@H](C(=O)N1C[C@@H](Oc2ccccc2)C[C@H]1C(=O)N[C@H](C=O)CCCNC(=N)N)c1ccccc1.Cl (relative stereo) [Example 16, EtSO2 -L-Phg-Pro(4-cis-phenoxy)-ArgH.HCl]	false (0)
Cl.Cl.N=C(N)NCCC[C@@H](C=O)NC(=O)[C@@H]1C[C@H](Oc2cccc(C(=O)O)c2)CN1C(=O)[C@H]1CCCCN1 (relative stereo) [Example 19]	false (0)
CCS(=O)(=O)N[C@H](Cc1ccccc1)C(=O)N1[C@H](C(=O)N[C@H](C=O)CCCNC(=N)N)C[C@@H]2CCCC[C@@H]21.Cl (relative stereo) [Example 23, EtSO2 -D-Phe-cis-Ohi-ArgH.HCl]	true (1)
Cl.Cl.Cl.N=C(N)NCCC[C@@H](C=O)NC(=O)[C@@H]1C[C@H](Oc2cccnc2)CN1C(=O)[C@H]1CCCCN1 (relative stereo) [Example 9]	false (0)
Cl.Cl.Cl.N=C(N)NCCC[C@@H](C=O)NC(=O)[C@@H]1C[C@H](Oc2ccc(N)cc2)CN1C(=O)[C@H]1CCCCN1 (relative stereo) [Example 11]	false (0)
Cl.Cl.N=C(N)NCCC[C@@H](C=O)NC(=O)[C@@H]1C[C@H](c2ccccc2)CN1C(=O)[C@H]1CCCCN1 (relative stereo) [Example 6, D-hPro-Pro(4-cis-phenyl)-ArgH.2 HCl]	true (1)
Cl.Cl.N=C(N)NCCC[C@@H](C=O)NC(=O)[C@@H]1C[C@H](Oc2cccc(N)c2)CN1C(=O)[C@H]1CCCCN1 (relative stereo) [Example 13]	false (0)
Cl.Cl.N=C(N)NCCC[C@@H](C=O)NC(=O)[C@@H]1C[C@H](Cc2ccccc2)CN1C(=O)[C@H]1CCCCN1 (relative stereo) [Example 5, D-hPro-Pro(4-cis-benzyl)-ArgH.2 HCl]	false (0)
Cl.N=C(N)NCCC[C@@H](C=O)NC(=O)[C@@H]1C[C@@H]2CCCC[C@@H]2N1C(=O)[C@@H](Cc1ccccc1)NCC(=O)O (relative stereo) [Example 24, HOOCCH2 -D-Phe-cis-Ohi-ArgH.HCl]	true (1)
CC(C)CC[C@H]1C[C@@H](C(=O)N[C@H](C=O)CCCNC(=N)N)N(C(=O)[C@H]2CC3CCCCC3CN2)C1.Cl.Cl (relative stereo) [Example 27]	true (1)
Cl.Cl.N=C(N)NCCC[C@H](C=O)NC(=O)[C@@H]1C[C@H](Oc2ccccc2)CN1C(=O)[C@H]1CCCCN1 (relative stereo) [Example 8]	true (1)
CC(=O)Nc1ccc(O[C@H]2C[C@@H](C(=O)N[C@H](C=O)CCCNC(=N)N)N(C(=O)[C@H]3CCCCN3)C2)cc1.Cl.Cl (relative stereo) [Example 10]	false (0)
Cl.Cl.NC(N)=NCCCC(C=O)NC(=O)C1CC(Oc2ccccc2)CN1C(=O)C1CC2CCCCC2CN1 (stereo not drawn) [Example 26]	true (1)
